Would you kindly list recombinant barcode read abundance (log10) for each of these sequences?
- run description: recombinant barcode read abundance after kanamycin selection (control-corrected) (log10(CPM+1)); higher = more efficient recombination; sequences stand for … in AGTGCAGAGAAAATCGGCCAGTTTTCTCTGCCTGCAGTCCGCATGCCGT…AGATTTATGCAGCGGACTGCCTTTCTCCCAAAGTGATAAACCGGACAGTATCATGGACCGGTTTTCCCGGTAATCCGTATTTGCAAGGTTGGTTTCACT; site = the 11-nt target
Give bare numbers.

Each sequence below has a recorded value; state its recombinant barcode read abundance (log10).
1. TGCCGAACTTGGGTTCTAACCTGTTGCCT (site GGCCGAACTAG)
2. GGCTCCTCTTGGGTTCTAACCTGTTGCCA (site GGCTCCTCTTG)
3. GGACATGCTTGGGTTCTAACCTGTTGCGT (site GGACATGCTAC)
4. TACAAGTCTTGGGTTCTAACCTGTTGCCT (site TACAAGTCTAG)
5. TAGGCTCCTTGGGTTCTAACCTGTTGCAA (site TAGGCTCCTGT)

-- reply
0.0503
0.674
2.7
0.625
0

====

- run description: recombinant barcode read abundance after kanamycin selection (control-corrected) (log10(CPM+1)); higher = more efficient recombination; sequences stand for … in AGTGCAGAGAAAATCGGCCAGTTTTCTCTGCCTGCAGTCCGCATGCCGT…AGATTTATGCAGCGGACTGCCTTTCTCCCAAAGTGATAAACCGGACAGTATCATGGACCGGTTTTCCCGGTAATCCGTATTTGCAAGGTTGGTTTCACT; site = the 11-nt target
quantity: recombinant barcode read abundance (log10)
Answers are plain numbers.

sequence data: GCATGTCCTTGGGTTCTAACCTGTTGCAT (site GCATGTCCTAT)
value reported: 1.37
--
sequence data: GGAACTACTTGGGTTCTAACCTGTTGCAC (site GGAACTACTGT)
value reported: 0.838

Dear colleague, could you send me recombinant barcode read abundance (log10) for each of the items below? Thanks.
1. CTAAGGTCTTGGGTTCTAACCTGTTGCCT (site CTAAGGTCTAA)
2. CGTTTCCCTTGGGTTCTAACCTGTTGCGT (site CGTTTCCCTCT)
3. ATAAAAGCTTGGGTTCTAACCTGTTGCCT (site ATAATAGCTAG)
4. TCCCATACTTGGGTTCTAACCTGTTGCAT (site TCCCATACTAT)
5. AAGAAAGCTTGGGTTCTAACCTGTTGCCT (site AAGAGAGCTAG)
6. ATAGAGTCTTGGGTTCTAACCTGTTGCCT (site ATAGAGTCTAG)
7. GTCTAATCTTGGGTTCTAACCTGTTGCAT (site GTCTAATCTAT)

-- reply
[0.745, 0.0161, 0.59, 0.982, 0.113, 2.64, 1.02]

-- ask Param item = TCCACACCTTGGGTTCTAACCTGTTGCCT (site TCCACATCTAG) ; retrieve measured recombinant barcode read abundance (log10).
-- reply 0.0345

====

So I've got a bunch of sequences here, and I need their recombinant barcode read abundance (log10) values.
- run description: recombinant barcode read abundance after kanamycin selection (control-corrected) (log10(CPM+1)); higher = more efficient recombination; sequences stand for … in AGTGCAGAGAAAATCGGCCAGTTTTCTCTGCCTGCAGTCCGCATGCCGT…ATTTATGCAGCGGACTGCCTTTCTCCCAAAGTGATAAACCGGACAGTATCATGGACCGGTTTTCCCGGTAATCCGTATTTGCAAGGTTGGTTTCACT; site = the 11-nt target
Numbers only.

Example cases with answers are listed next.
sequence data: TCGCGACTTTGGGTTCTAACCTGTTGCCGAG [TCGCGACCTCG_LTGcore_TT_RTGcore_CT] (site TCGCGACCTCG) (LTG core: TT, RTG core: CT)
value reported: 0.282

sequence data: TTATAAATTTGGGTTCTAACCTGTTGCCTAA [TTATAAACTAG_LTGcore_TT_RTGcore_TT] (site TTATAAACTAG) (LTG core: TT, RTG core: TT)
value reported: 0.0515

sequence data: GCGGGACCTTGGGTTCTAACCTGTTGCCTAC [GCGGGACCTAG_LTGcore_CT_RTGcore_GT] (site GCGGGACCTAG) (LTG core: CT, RTG core: GT)
value reported: 0.997

Below are some sequences; for each one, tell me its recombinant barcode read abundance (log10).
1. TTATAAATCTGGGTTCTAACCTGTTGCCTAG [TTATAAACTAG_LTGcore_TC_RTGcore_CT] (site TTATAAACTAG) (LTG core: TC, RTG core: CT)
2. ACGGGACCATGGGTTCTAACCTGTTGCAGTG [ACGGGACCTCT_LTGcore_CA_RTGcore_CA] (site ACGGGACCTCT) (LTG core: CA, RTG core: CA)
3. TTATAAACTTGGGTTCTAACCTGTTGCCTTA [TTATAAACTAG_LTGcore_CT_RTGcore_TA] (site TTATAAACTAG) (LTG core: CT, RTG core: TA)
4. CGCGCCCCTTGGGTTCTAACCTGTTGCGGTA [CGCGCCCCTCC_LTGcore_CT_RTGcore_TA] (site CGCGCCCCTCC) (LTG core: CT, RTG core: TA)
5. GAGTCCATTTGGGTTCTAACCTGTTGCGTAG [GAGTCCACTAC_LTGcore_TT_RTGcore_CT] (site GAGTCCACTAC) (LTG core: TT, RTG core: CT)
6. GGACACCCTTGGGTTCTAACCTGTTGCCTAT [GGACACCCTAG_LTGcore_CT_RTGcore_AT] (site GGACACCCTAG) (LTG core: CT, RTG core: AT)
7. GTCGCCCGCTGGGTTCTAACCTGTTGCTAGC [GTCGCCCCTTA_LTGcore_GC_RTGcore_GC] (site GTCGCCCCTTA) (LTG core: GC, RTG core: GC)

-- reply
[0.235, 0.127, 0.076, 0.602, 0.0725, 1.28, 0.459]

-- ask Recorded recombinant barcode read abundance (log10) of CGGTCCCCCTGGGTTCTAACCTGTTGCCAAG [CGGTCCCCTTG_LTGcore_CC_RTGcore_CT] (site CGGTCCCCTTG) (LTG core: CC, RTG core: CT) , please.
-- reply 0.189

====

- run description: recombinant UMI read abundance after kanamycin selection (control-corrected) (log10(CPM+1)); higher = more efficient recombination; extreme values may be limits of the assay; sequences stand for … in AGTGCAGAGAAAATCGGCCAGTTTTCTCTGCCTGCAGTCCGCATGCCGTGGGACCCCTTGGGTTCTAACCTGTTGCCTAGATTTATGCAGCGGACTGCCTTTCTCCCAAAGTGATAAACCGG…AGGTTGGTTTCACT; site = the 11-nt donor
Classify by recombinant UMI read abundance (log10). Ranges: low (below 0.005), moderate (0.005 to below 1), high (1 or more)

Example results:
sequence data: AGGGCAACATGGACCGGTTTTCCCGGTAATCCGTATTTGTT (site AGGGCAACTAA)
class label: moderate
//
sequence data: CGTAATACATGGACCGGTTTTCCCGGTAATCCGTATTTGGC (site CTTAATACTGC)
class label: low
//
sequence data: ACTTCTTCATGGACCGGTTTTCCCGGTAATCCGTATTTGTC (site ACTTCTTCTGA)
class label: low
//
sequence data: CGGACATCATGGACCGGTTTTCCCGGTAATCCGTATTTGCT (site CGGACACCTAG)
class label: low
//
sequence data: CGAGGACCATGGACCGGTTTTCCCGGTAATCCGTATTTGGT (site CGAGGACCTAC)
class label: moderate
//
sequence data: GAAGATTCATGGACCGGTTTTCCCGGTAATCCGTATTTGTG (site GAAGATTCTAA)
class label: high
//
sequence data: GTGGAGGCATGGACCGGTTTTCCCGGTAATCCGTATTTGTA (site GTGGAGGCTCA)
class label: moderate
//
sequence data: TGCCGTACATGGACCGGTTTTCCCGGTAATCCGTATTTGCT (site CGCCGTACTAG)
class label: moderate

Lab note: next sequence to report on.
-- ask Form field 'band' for GTACGCTCATGGACCGGTTTTCCCGGTAATCCGTATTTGAA (site GTACGCTCTTT)
-- reply high

====

- run description: recombinant UMI read abundance after kanamycin selection (control-corrected) (log10(CPM+1)); higher = more efficient recombination; extreme values may be limits of the assay; sequences stand for … in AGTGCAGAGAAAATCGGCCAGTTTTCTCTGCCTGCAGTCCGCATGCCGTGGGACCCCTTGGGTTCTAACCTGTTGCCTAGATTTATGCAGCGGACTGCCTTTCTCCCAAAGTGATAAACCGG…AGGTTGGTTTCACT; site = the 11-nt donor
Classify as follows. Reported recombinant UMI read abundance (log10) greater than or equal to 0.4: Condition met. Reported recombinant UMI read abundance (log10) below: Condition not met.

Example cases with answers are listed next.
sequence data: AGGCTTTCATGGACCGGTTTTCCCGGTAATCCGTATTTGAC (site AGTCTTTCTGT)
class label: Condition not met
--
sequence data: CTAGCAGCATGGACCGGTTTTCCCGGTAATCCGTATTTGCT (site CAAGCAGCTAG)
class label: Condition not met
--
sequence data: GTATCGTCATGGACCGGTTTTCCCGGTAATCCGTATTTGTC (site GTATCGTCTGA)
class label: Condition met

-- ask Quick check: does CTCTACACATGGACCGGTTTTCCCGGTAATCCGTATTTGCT (site GTCTACACTAG) have recombinant UMI read abundance (log10) greater than or equal to 0.4?
-- reply Condition not met

-- ask Try this sequence next: ATTAAGACATGGACCGGTTTTCCCGGTAATCCGTATTTGGT (site ATTCAGACTAC)
-- reply Condition met
